Target: BRD4 (BDI_K57-E168) (Homo sapiens, UniProt O60885)
Construct: BD1: amino acids K57-E168
Test: TR-FRET bromodomain binding assay, BRD4 first bromodomain
Conditions: His-tagged BD1, Alexa647-labeled probe 100 nM; Ki calculated from IC50
experimentalEndpoint: Ki (µM)

(Q) I would be grateful if you could share the reported Ki for Cc1[nH]c(-c2ccc(-c3ccc(NS(C)(=O)=O)cc3)cc2)cc1C(N)=O .
(A) 4.03

a. Cc1[nH]c(-c2ccc(-c3ccc(C(=O)N(C)C)cc3)cc2)cc1C(N)=O
b. Cc1[nH]c(-c2ccccc2NC2CN3CCC2CC3)cc1C(N)=O (centres unmarked)
(Q) // which entry reports the smaller Ki, a or b ? Selection: enter the item's label.
(A) b
(b: 0.628 µM, a: 11 µM)

I. Cc1[nH]c(-c2ccccc2NS(=O)(=O)c2cccnc2)cc1C(N)=O
II. Cc1[nH]c(-c2ccc(-c3ccc(C(=O)N4CCN(C)CC4)cc3)cc2)cc1C(N)=O
(Q) So which one has the bigger Ki here, I or II ? Identify your selection by its label.
(A) I
(I: 9.39 µM, II: 3.96 µM)
